These measurements were taken from PubChem BioAssay (NCATS).

Target: Glucocorticoid receptor (Homo sapiens) (UniProt P04150)
Sequence (P04150 whole entry, looked up): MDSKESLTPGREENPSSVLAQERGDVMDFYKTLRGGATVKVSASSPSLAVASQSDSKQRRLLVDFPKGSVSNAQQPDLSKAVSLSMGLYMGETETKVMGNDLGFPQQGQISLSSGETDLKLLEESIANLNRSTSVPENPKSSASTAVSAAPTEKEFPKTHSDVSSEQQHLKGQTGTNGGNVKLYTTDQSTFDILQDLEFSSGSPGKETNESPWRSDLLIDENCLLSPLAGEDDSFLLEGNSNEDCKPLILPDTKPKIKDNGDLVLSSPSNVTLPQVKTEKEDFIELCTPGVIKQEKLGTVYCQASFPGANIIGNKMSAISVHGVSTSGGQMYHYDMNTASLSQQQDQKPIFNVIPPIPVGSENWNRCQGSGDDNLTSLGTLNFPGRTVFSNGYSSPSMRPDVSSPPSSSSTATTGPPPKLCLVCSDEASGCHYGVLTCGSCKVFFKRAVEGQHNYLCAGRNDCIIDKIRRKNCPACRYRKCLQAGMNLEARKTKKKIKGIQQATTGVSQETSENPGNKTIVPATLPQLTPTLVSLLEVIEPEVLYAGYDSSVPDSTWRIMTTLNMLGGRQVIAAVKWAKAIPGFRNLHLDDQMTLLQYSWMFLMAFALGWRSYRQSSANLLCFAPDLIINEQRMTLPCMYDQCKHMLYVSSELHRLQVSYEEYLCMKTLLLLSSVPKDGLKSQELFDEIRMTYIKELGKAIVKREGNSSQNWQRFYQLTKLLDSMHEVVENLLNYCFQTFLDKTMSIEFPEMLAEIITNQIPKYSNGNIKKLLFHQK
Assay: qHTS assay for small molecule agonists of glucocorticoid receptor signaling (AID 588532);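 also: 100% = dexamethasone at 0.1 µM and 0% = DMSO only wells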
Settings: HeLa MMTV-bla, beta-lactamase ratio, agonist, 18 h; hits give high values; percent of dexamethasone control, DMSO zero
Results filed as inconclusive are left out. Active and inactive are the calls of the source. Calls follow the shape of the dose curve; as a rule, active = well fitted curve in the direction sought with a large enough effect in the signal ratio, with a control signal flat; inconclusive = small, poorly fitted or top-dose-only effect, or a change in a side signal; inactive = no such curve, though single readings can be large or run the other way; the % refers to the signal ratio.
Endpoint: activation

In [3]: df
Out[3]:
                                    compound                           measured_target        result_value
 0                  Cc1ccc(N)cc1[N+](=O)[O-]  Glucocorticoid receptor (Homo sapiens) (UniProt P04150)   0.881% (inactive)
 1                                   CCCCNCC  Glucocorticoid receptor (Homo sapiens) (UniProt P04150)   -12.1% (inactive)
 2                            c1ccc2ncccc2c1  Glucocorticoid receptor (Homo sapiens) (UniProt P04150)   -12.1% (inactive)
 3               Nc1ccc(-c2ccc(N)c(O)c2)cc1O  Glucocorticoid receptor (Homo sapiens) (UniProt P04150)  0.0418% (inactive)
 4                 Cc1ccc2ccc3cccc4ccc1c2c34  Glucocorticoid receptor (Homo sapiens) (UniProt P04150)   -3.78% (inactive)
 5            CCCCCCc1ccc(-c2ccc(C#N)cc2)cc1  Glucocorticoid receptor (Homo sapiens) (UniProt P04150)   -6.81% (inactive)
 6                     Brc1ccc(-c2ccccc2)cc1  Glucocorticoid receptor (Homo sapiens) (UniProt P04150)   -2.59% (inactive)
 7                     CC(=O)CC(=O)Nc1ccccc1  Glucocorticoid receptor (Homo sapiens) (UniProt P04150)   -8.89% (inactive)
 8  C=CC(C)(O)CCCC(C)CCCC(C)CCCC(C)C (stereo not given)  Glucocorticoid receptor (Homo sapiens) (UniProt P04150)    1.44% (inactive)
 9                             C[Si](C)(C)Cl  Glucocorticoid receptor (Homo sapiens) (UniProt P04150)    10.5% (inactive)
10                     O=C=Nc1ccc(Cl)c(Cl)c1  Glucocorticoid receptor (Homo sapiens) (UniProt P04150)    5.86% (inactive)
11                   S=C(NC1CCCCC1)NC1CCCCC1  Glucocorticoid receptor (Homo sapiens) (UniProt P04150)       9% (inactive)
12                                 OC1CCCCC1  Glucocorticoid receptor (Homo sapiens) (UniProt P04150)   -3.35% (inactive)
13                       O=c1[nH]ncc2ccccc12  Glucocorticoid receptor (Homo sapiens) (UniProt P04150)  -0.672% (inactive)
14                     c1ccc(CSCc2ccccc2)cc1  Glucocorticoid receptor (Homo sapiens) (UniProt P04150)   -4.65% (inactive)
15                        Clc1nc2ccccc2nc1Cl  Glucocorticoid receptor (Homo sapiens) (UniProt P04150)    3.19% (inactive)
16                       O=C1OC(=O)c2ccccc21  Glucocorticoid receptor (Homo sapiens) (UniProt P04150)    8.87% (inactive)
17                     Oc1ccc(O)c2c(O)cccc12  Glucocorticoid receptor (Homo sapiens) (UniProt P04150)   -3.75% (inactive)
18                       CCOc1ccc2nc(N)sc2c1  Glucocorticoid receptor (Homo sapiens) (UniProt P04150)   -9.89% (inactive)
19                                 C1CCCNCC1  Glucocorticoid receptor (Homo sapiens) (UniProt P04150)    8.29% (inactive)
20  CCCCC(CC)COP(=O)(OCC(CC)CCCC)OCC(CC)CCCC (stereo not given)  Glucocorticoid receptor (Homo sapiens) (UniProt P04150)   -3.34% (inactive)
21          CC(C)COC(=O)COc1cc(Cl)c(Cl)cc1Cl  Glucocorticoid receptor (Homo sapiens) (UniProt P04150)   -3.56% (inactive)
22                   O=[N+]([O-])c1cccc(I)c1  Glucocorticoid receptor (Homo sapiens) (UniProt P04150)   -12.6% (inactive)
23  Oc1cc2c(cc1O)[C@H]1c3ccc(O)c(O)c3OC[C@@]1(O)C2  Glucocorticoid receptor (Homo sapiens) (UniProt P04150)   0.204% (inactive)
24                 CCCCCCCCOc1ccc(C(=O)O)cc1  Glucocorticoid receptor (Homo sapiens) (UniProt P04150)   -4.25% (inactive)
25    COc1ccc(C(=O)Nc2ccccc2)cc1[N+](=O)[O-]  Glucocorticoid receptor (Homo sapiens) (UniProt P04150)   -1.05% (inactive)
26                             C/C=C/C=C/C=O  Glucocorticoid receptor (Homo sapiens) (UniProt P04150)  -0.282% (inactive)
27  C=C1CC[C@H](O)C/C1=C/C=C1\CCC[C@]2(C)[C@@H]([C@H](C)CCCC(C)C)CC[C@@H]12  Glucocorticoid receptor (Homo sapiens) (UniProt P04150)   -3.67% (inactive)
28                                c1c[nH]cn1  Glucocorticoid receptor (Homo sapiens) (UniProt P04150)   -7.19% (inactive)
29  Cc1c(C(=O)O)c(O)cc2c1C(=O)c1c(O)c([C@H]3O[C@H](CO)[C@@H](O)[C@H](O)[C@H]3O)c(O)c(O)c1C2=O  Glucocorticoid receptor (Homo sapiens) (UniProt P04150)   -7.96% (inactive)

----------
Target: Cytochrome P450 1A2 (Homo sapiens)
Test: p450-cyp1a2 (AID 410);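 also: -100% = full effect of reference inhibitor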
Conditions: recombinant CYP1A2, luciferin-ME demethylation, luminescence; series mostly up to 11.4 µM
Inconclusive results are not listed. The source made the active and inactive calls. Calls follow the shape of the full dose curve.
Reported activity change, negative = inhibition values for the following compounds.
Endpoint: activity change, negative = inhibition

>>> print(df.to_string())
                                        mol                    result_value
0       N#CC(C#N)=CNCCN1CCN(C=C(C#N)C#N)CC1  -15.5% [at 2.29 µM] (inactive)
1         CCOc1ccccc1Nc1ccc(N)cc1S(=O)(=O)O  -12.6% [at 2.29 µM] (inactive)
2                   O=C(O)C(Cc1cccs1)C(=O)O   -2.1% [at 2.29 µM] (inactive)
3  O=C(O)[C@@H]1CS[C@@]2(CCCN(Cc3ccccc3)C2)N1    -12% [at 2.29 µM] (inactive)
4      Cn1c([N+](=O)[O-])cnc1CN1CCN(CCO)CC1    9.2% [at 2.29 µM] (inactive)
5  C[C@@H](N1CCOCC1)[C@@](O)(c1ccccc1)c1ccccn1   -2.5% [at 2.29 µM] (inactive)

----------
Test: Cell Viability - LYMP2-022 (AID 987);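 also: cells exposed to compound for 24 hr; nearly all actives have a fitted effect of over 55% in size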
Details: LYMP2-022 lymphoblastoid cell viability; series mostly up to 92.2 µM
Results filed as inconclusive are left out. Calls of active or inactive are those of the source. Calls follow the shape of the dose curve; as a rule, active = well fitted cell-killing curve with a large enough effect; inconclusive = small, poorly fitted or top-dose-only effect; inactive = flat fitted curve, though single readings scatter.
Outcome codes: true (1) = active, false (0) = inactive

>>> df
                                    compound  assigned_category
 0                                c1c[nH]cn1          false (0)
 1          O=C(O)/C=C/c1ccc(/C=C/C(=O)O)cc1          false (0)
 2       Cc1ccccc1OCC1CO1 (stereo not given)          false (0)
 3          CC(C)COC(=O)COc1cc(Cl)c(Cl)cc1Cl          false (0)
 4       CN(C)c1ccc(C(=N)c2ccc(N(C)C)cc2)cc1           true (1)
 5                        Cc1cc2nc(N)sc2cc1C          false (0)
 6                  CC(=O)c1ccc(Cl)c(Cl)c1Cl          false (0)
 7  C/C=C1/C(=O)C[C@H]2[C@@H]3CCC4=CC(=O)CC[C@]4(C)[C@H]3CC[C@]12C           true (1)
 8  Nc1cnn([C@@H]2O[C@H](CO)[C@@H](O)[C@H]2O)c(=O)n1          false (0)
 9                   O=[N+]([O-])c1cccc(I)c1          false (0)
10                  Nc1cc([N+](=O)[O-])ccc1O          false (0)
11     COc1cc(-c2ccc(N=C=O)c(OC)c2)ccc1N=C=O          false (0)
12        CC/C=C/C/C=C/C/C=C/CCCCCCCC(=O)OCC           true (1)
13                             C/C=C/C=C/C=O           true (1)
14                                C=CC(=O)CC          false (0)
15              CCN(CC)c1ccc2c(C)cc(=O)oc2c1          false (0)
16                                   CCCCCCN          false (0)
17                             C/C(Cl)=C/CCl          false (0)
18                    c1ccc2c(c1)ccc1ccccc12          false (0)
19                         CCCC(=O)OC(=O)CCC          false (0)
20  O=C(OCC1CO1)C1CCCCC1C(=O)OCC1CO1 (stereo not given)           true (1)
21  N=C1C=CC(=C(c2ccc(N)cc2)c2ccc(N)cc2)C=C1           true (1)
22               C=CC1CO1 (stereo not given)          false (0)
23                               CCNC(=S)NCC          false (0)
24               c1cc2c3c(c1)ccc1cccc(c13)C2          false (0)
25        CCCCCCCC/C=C\CCCCCCCC(=O)N(CCO)CCO          false (0)
26                     CC(=O)CC(=O)Nc1ccccc1          false (0)
27                   NC(=O)Nc1nc2ccccc2[nH]1          false (0)
28                                 Cc1cccnc1          false (0)
29                                   CCCCNCC          false (0)
